Entry source: patent US9511052B2

The entries below are paired with their reported pIC50.
- TARGET ENTITY: full-length human Mineralocorticoid Receptor (MR) (Homo sapiens, UniProt P08235)
- Sequence (P08235 whole entry): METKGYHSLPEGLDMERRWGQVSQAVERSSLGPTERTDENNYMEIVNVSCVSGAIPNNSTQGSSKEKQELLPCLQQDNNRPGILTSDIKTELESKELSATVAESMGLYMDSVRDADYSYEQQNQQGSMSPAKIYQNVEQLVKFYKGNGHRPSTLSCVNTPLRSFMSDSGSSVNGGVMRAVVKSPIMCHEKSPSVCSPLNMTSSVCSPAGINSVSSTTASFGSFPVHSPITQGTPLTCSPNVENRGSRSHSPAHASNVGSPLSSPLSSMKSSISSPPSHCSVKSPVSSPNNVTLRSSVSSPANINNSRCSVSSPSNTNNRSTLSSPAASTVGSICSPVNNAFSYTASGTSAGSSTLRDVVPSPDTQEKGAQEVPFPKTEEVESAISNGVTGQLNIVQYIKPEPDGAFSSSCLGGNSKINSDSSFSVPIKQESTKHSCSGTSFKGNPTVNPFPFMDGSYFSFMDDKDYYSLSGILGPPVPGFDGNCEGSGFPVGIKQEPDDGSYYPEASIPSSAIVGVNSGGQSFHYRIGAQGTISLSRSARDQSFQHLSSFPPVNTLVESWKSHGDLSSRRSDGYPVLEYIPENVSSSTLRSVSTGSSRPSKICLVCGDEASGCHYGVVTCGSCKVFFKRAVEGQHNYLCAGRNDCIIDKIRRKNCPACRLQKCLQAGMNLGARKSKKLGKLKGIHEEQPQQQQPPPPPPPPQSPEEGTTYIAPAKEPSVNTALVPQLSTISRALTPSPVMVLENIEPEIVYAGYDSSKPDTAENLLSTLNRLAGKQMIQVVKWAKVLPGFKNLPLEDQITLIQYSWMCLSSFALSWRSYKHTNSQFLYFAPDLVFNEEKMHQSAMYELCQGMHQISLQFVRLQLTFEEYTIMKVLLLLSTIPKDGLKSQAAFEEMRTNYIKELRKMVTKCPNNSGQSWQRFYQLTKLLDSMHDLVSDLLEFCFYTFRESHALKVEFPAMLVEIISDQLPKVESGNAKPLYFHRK
- TEST PROTOCOL: human MR NH Pro assay (PathHunter Protein:Protein interaction assay), MR antagonism
- CONDITION DETAILS: IP = inflection point of the dose-response curve; CHO-K1 cells overexpressing human MR, aldosterone about 0.3 nM to about 1 nM, 6 hours at 37° C.
As a rule, pIC50 stands for the negative log10 of the concentration, concentration in M.

Illustrative cases are given below, each with its answer.
| COMPOUND | TARGET ENTITY | pIC50 |
| --- | --- | --- |
| CCC(c1ccc(C(F)(F)F)cc1)(C(O)C(F)F)n1ncc2c(NS(C)(=O)=O)cc(F)cc21 (single isomer, unassigned) [Compound 51] | full-length human Mineralocorticoid Receptor (MR) (Homo sapiens, UniProt P08235) | 7.89 |
| CCC(C(N)=O)(c1ccc(C(F)(F)F)cc1)n1ncc2c(NS(C)(=O)=O)cccc21 (single isomer, unassigned) [Compound 12] | full-length human Mineralocorticoid Receptor (MR) (Homo sapiens, UniProt P08235) | 6.86 |
| CS(=O)(=O)Nc1cccc2c1cnn2C(CO)(CC(F)F)c1ccc(C(F)(F)F)cc1 (single isomer, unassigned) [Compound 43] | full-length human Mineralocorticoid Receptor (MR) (Homo sapiens, UniProt P08235) | 6.41 |

I would be grateful if you could share the reported pIC50 for CS(=O)(=O)Nc1cccc2c1cnn2C(CC(F)F)(C(N)=O)c1ccc(C(F)(F)F)cc1 (single isomer, unassigned) [Compound 45] .
6.56

Param item: CCC(c1ccc(Br)cc1)(C(C)O)n1ncc2c(NS(C)(=O)=O)cccc21 (single isomer, unassigned) [Compound 3]
6.13

Param item: CCC(O)C(CC(F)F)(c1ccc(C(F)(F)F)cc1)n1ncc2c(NS(C)(=O)=O)cccc21 (single isomer, unassigned) [Compound 42]
5.86

* * *

The entries below are paired with their reported half-life.
- TEST PROTOCOL: PK profile in rats
- Type: in vivo, rat
- CONDITION DETAILS: rat, in vivo
Use h as the unit, but write only the number.

Illustrative cases are given below, each with its answer.
| COMPOUND | half-life, h |
| --- | --- |
| CCC(c1ccc(C(F)(F)F)cc1)(C(C)O)n1ncc2c(NS(C)(=O)=O)cc(F)cc21 (single isomer, unassigned) | 5.2 |
| CS(=O)(=O)Nc1cccc2c1cnn2C(CC(F)F)(C(N)=O)c1ccc(C(F)(F)F)cc1 (single isomer, unassigned) | 4.2 |
| CCC(c1ccc(Br)cc1)(C(C)O)n1ncc2c(NS(C)(=O)=O)cccc21 (single isomer, unassigned) | 3.6 |

Switching to the query record.
I would be grateful if you could share the reported half-life for CC(O)C(CC(F)F)(c1ccc(C(F)(F)F)cc1)n1ncc2c(NS(C)(=O)=O)cccc21 (single isomer, unassigned) .
7

* * *

- TEST PROTOCOL: Hepatocyte stability, dog
- Assay type: in vitro ADME
- CONDITION DETAILS: hepatocytes, read-out: Hepatocyte Stability (t1/2)
MEASURED METRIC: half-life (h)
Use h as the unit, but write only the number.

Illustrative cases are given below, each with its answer.
| COMPOUND | MEASUREMENT UNIT | half-life |
| --- | --- | --- |
| CCC(O)C(CC)(c1ccc(C(F)(F)F)cc1)n1ncc2c(NS(C)(=O)=O)cccc21 (single isomer, unassigned) | h | 0.8 |
| CCC(c1ccc(C(F)(F)F)cc1)(C(C)O)n1ncc2c(NS(C)(=O)=O)cc(F)cc21 (single isomer, unassigned) | h | 1.22 |
| CC(O)C(CC(F)F)(c1ccc(C(F)(F)F)cc1)n1ncc2c(NS(C)(=O)=O)cccc21 (single isomer, unassigned) | h | 1.32 |

I would be grateful if you could share the reported half-life for CCC(c1ccc(Br)cc1)(C(C)O)n1ncc2c(NS(C)(=O)=O)cccc21 (single isomer, unassigned) .
0.75
